Target: CCK-B receptors (CHO-CCK) (Homo sapiens, UniProt P32239)
Construct: expressed in transfected cells; host or cells: CHO (CHO-CCK model cells)
Sequence (P32239 1-447): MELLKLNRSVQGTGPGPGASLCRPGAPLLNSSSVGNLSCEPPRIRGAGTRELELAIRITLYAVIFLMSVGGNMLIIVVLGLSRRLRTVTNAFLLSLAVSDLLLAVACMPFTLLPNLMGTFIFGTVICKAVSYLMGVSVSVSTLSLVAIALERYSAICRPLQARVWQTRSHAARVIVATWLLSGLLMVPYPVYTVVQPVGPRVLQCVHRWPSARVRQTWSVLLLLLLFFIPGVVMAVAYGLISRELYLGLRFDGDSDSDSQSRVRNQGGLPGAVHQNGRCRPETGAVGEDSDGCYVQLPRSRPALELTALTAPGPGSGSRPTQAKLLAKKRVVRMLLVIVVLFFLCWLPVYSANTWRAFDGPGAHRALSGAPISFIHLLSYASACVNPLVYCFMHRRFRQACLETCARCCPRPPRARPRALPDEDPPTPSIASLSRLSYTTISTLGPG
Assay: Calcium flux (Fluo-8) agonist test on CHO-CCK model cells
Format: cell-based
Conditions: CHO-CCK cells, compound alone; 100% = 20 nM CCK8
Where a SMILES comes first, the peptide text is derived from it. [ ]: non-standard residue; d: D form. Phe(3-Br) = N[C@@H](Cc1cccc(Br)c1)C(=O)O; Nle = CCCC[C@H](N)C(=O)O
endpoint label: EC50 (nM)

Field: example entries. Status: answers known.
>>> value_observed("CSCC[C@H](NC(=O)[C@H](N)Cc1c[nH]c2ccccc12)C(=O)N[C@@H](CC(=O)O)C(=O)N[C@@H](Cc1ccc(Cl)cc1)C(N)=O")
180
>>> value_observed("CSCC[C@H](NC(=O)[C@H](N)Cc1c[nH]c2ccccc12)C(=O)N[C@@H](CC(=O)O)C(=O)N[C@@H](Cc1ccc(F)cc1)C(N)=O")
88.8
>>> value_observed("C[S+]([O-])CC[C@H](NC(=O)[C@H](N)Cc1c[nH]c2ccccc12)C(=O)N[C@@H](CC(=O)O)C(=O)N[C@@H](Cc1cc(F)c(F)c(F)c1)C(N)=O (stereo partly drawn)")
6790
>>> value_observed("CSCC[C@H](NC(=O)[C@H](N)Cc1c[nH]c2ccccc12)C(=O)N[C@@H](CC(=O)O)C(=O)N[C@@H](Cc1ccc(C)cc1)C(N)=O")
93.2
>>> value_observed("CSCC[C@H](NC(=O)[C@@H](Cc1ccccc1)NC(C)=O)C(=O)N[C@@H](CC(=O)O)C(=O)N[C@@H](Cc1cccc(Br)c1)C(N)=O [HT-180, Ac-D-Phe-Met-Asp-Phe(3-Br)-NH2] (Ac-[dF]MD[Phe(3-Br)]-NH2)")
447

I. CC(=O)N[C@H](Cc1c[nH]c2ccccc12)C(=O)N[C@@H](CCC(N)=O)C(=O)N[C@@H](CC(=O)O)C(=O)N[C@@H](Cc1cccc(Br)c1)C(N)=O [HT-184, Ac-D-Trp-Glu-Asp-Phe(3-Br)-NH2]
II. CCCC[C@H](NC(=O)[C@@H](Cc1c[nH]c2ccccc12)NC(C)=O)C(=O)N[C@@H](CC(=O)O)C(=O)N[C@@H](Cc1cccc(Br)c1)C(N)=O [HT-178, Ac-D-Trp-Nle-Asp-Phe(3-Br)-NH2] (Ac-[dW][Nle]D[Phe(3-Br)]-NH2)
Between I and II , whose measured EC50 reads higher? Please indicate the selected item by its label.
I
(I: 4320 nM, II: 2.81 nM)
